Values were extracted from patent US11667628B2.

Documented EC50 across a set of molecules
Molecular target: Human T40 (the longest tau isoform formed with 441 amino acid residues) fibrils (Homo sapiens)
Sequence (P10636 1-441 isoform P10636-8): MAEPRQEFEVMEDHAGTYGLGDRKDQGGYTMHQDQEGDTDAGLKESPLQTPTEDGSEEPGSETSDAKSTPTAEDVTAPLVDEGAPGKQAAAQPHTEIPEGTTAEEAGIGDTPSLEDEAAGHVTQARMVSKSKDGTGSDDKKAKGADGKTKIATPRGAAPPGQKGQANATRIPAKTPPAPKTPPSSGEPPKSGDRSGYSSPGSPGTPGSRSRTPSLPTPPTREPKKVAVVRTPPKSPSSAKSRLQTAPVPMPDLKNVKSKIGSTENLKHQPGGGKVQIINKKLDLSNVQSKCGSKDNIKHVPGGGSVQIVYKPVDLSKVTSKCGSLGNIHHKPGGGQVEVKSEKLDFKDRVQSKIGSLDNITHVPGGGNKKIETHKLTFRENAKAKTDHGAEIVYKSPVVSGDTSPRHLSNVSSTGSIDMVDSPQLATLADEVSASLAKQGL
Assay: In vitro fluorometric binding assay, recombinant T40 tau fibrils
Conditions: average±SE; concentration giving half of maximum fluorescence intensity
ENDPOINT: EC50 (nM)

| MOLECULE | ENDPOINT | UNIT_OF_MEASURE | RESULT_VALUE |
| --- | --- | --- | --- |
| CC[n+]1c(/C=C/C=C/c2ccc(N(C)C)cc2)sc2ccccc21 [PBB5] | EC50 | nM | 126 |
| CN(C)c1ccc(/C=C/C=C/c2nc3ccccc3s2)cc1 [PBB1] | EC50 | nM | 402 |
